# Test system: MCF7
# RUN DESCRIPTION: NCI tumour cell line growth inhibition, 48 h
Active and inactive are the calls of the source. Cut-off read from the data, not from the text of the source: active = GI50 up to about 1.1 µM and inactive = higher.
Give GI50 for every item shown.

// below: answered molecules
* COc1cc(OC)c(OC)cc1/C=C/c1cc[n+](C)c2ccccc12 | 49.2 µM (inactive)
* CC(=O)Nc1cc2c3c(c1)CCCN3CCC2 | > 100 µM (inactive)
* C#CC1(O)C(COP(=O)(O)OC(COCCCCCCCCCCCCCCCCCC)COP(=O)(O)OCC2OC(n3cc(C)c(=O)[nH]c3=O)CC2N=[N+]=[N-])OC(n2ccc(N)nc2=O)C1O (centres undefined) | 0.122 µM (active)
* CC[C@@H]1ON(C)[C@H]2CN(C)C(=O)[C@@H]12 | > 100 µM (inactive)
* CC(=O)NC1C(OCc2ccccc2)OC(CO)C(O)C1OC(C)C(=O)NC(C(=O)N[C@@H](CCC(=O)NCCNCCNc1c2ccccc2nc2cccc([N+](=O)[O-])c12)C(N)=O)C(C)C (some centres undefined) | 6.7 µM (inactive)
* CC(C)(C)CNCCCNc1ccc(Cl)cc1 | 11.9 µM (inactive)
* O=C(CC(O)c1cccnc1)CC(O)c1cccnc1 (centres undefined) | 4.34 µM (inactive)
* COc1ccc(C2c3cc4c(cc3OC(N3CCOCC3)C2C)OCO4)c(OC)c1OC (centres undefined) | 10.9 µM (inactive)

For every item in the list below, what is its measured GI50?
1. N/C(=N/O)N/N=C\c1cc(Cl)cc(Cl)c1O
2. O=c1c2cc([N+](=O)[O-])ccc2nc2n1CCCCC2
3. COC1=CC(=O)c2c(cc(COP(=O)(N(C)CCBr)N(C)CCBr)n2C)C1=O
4. O=C1NC(=S)NC(=O)C1=Cc1ccc(-c2ccccc2)cc1
5. Cc1cc(S(=O)(=O)/N=C(\NN)Nc2ccc(Cl)cc2)c(S)cc1Cl
6. N/C(=N\O)N/N=C/c1ccc2c(c1)OCCO2

result:
1. 0.428 µM (active)
2. > 100 µM (inactive)
3. < 0.0182 µM (active)
4. 72.8 µM (inactive)
5. 14.8 µM (inactive)
6. 22.1 µM (inactive)

For every item in the list below, what is its measured GI50?
1. Oc1cc(O)c2ccc(-c3ccc(O)c(O)c3)[o+]c2c1
2. O=C(CC1(O)C(=O)Nc2c(Cl)cc(Cl)cc21)c1ccc(Br)cc1Br (centres undefined)
3. O=C(/C=C/c1ccc(O)c(O)c1)OCCOC(=O)/C=C/c1ccc(O)c(O)c1
4. NS(=O)(=O)c1ccc(NNc2c3ccccc3nc3c(C(=O)Nc4ccc(S(N)(=O)=O)cc4)cccc23)cc1
5. CCN(CC)CC[n+]1ccc2c(C)c3[nH]c4ccccc4c3c(C)c2c1

result:
["> 100 µM (inactive)", "13.2 µM (inactive)", "34.5 µM (inactive)", "12.9 µM (inactive)", "0.522 µM (active)"]

====

# Test system: UACC-62
# RUN DESCRIPTION: NCI tumour cell line growth inhibition, 48 h
Calls of active or inactive are those of the source. No stated cut-off is given here; in the data, active = GI50 up to about 1.1 µM and inactive = higher.
QUANTITY MEASURED: GI50

// below: answered compounds
- CC(=O)Nc1cc2c3c(c1)CCCN3CCC2: > 100 µM (inactive)
- COC(=O)C(CCCCNC(=O)CNC(=O)OCc1ccccc1)NC(=O)C(CCCCNC(=O)CNC(=O)OCc1ccccc1)NC(=O)OCc1ccccc1 (stereo not drawn): 40 µM (inactive)
- Nc1nc(Cl)c(N)c(NCC2(CO)CCCC2)n1: 1.83 µM (inactive)
- C[N+](C)([O-])CCC=C1c2ccccc2CCc2ccccc21: 17.1 µM (inactive)
- Cc1ccc(S(=O)(=O)CC2CCCn3c2c(C#N)c2ccccc23)cc1 (stereo not drawn): 57.4 µM (inactive)
- Cc1nc(N)sc1C(=O)Nc1nc[nH]n1: > 100 µM (inactive)
- CCOC(=O)c1cc2cc(C)cc(C(=O)c3ccc([N+](=O)[O-])cc3)c2[nH]1: > 100 µM (inactive)
- O=c1oc2ccc([N+](=O)[O-])cc2cc1-c1csc(-c2ccccc2)n1: > 100 µM (inactive)

For every item in the list below, what is its measured GI50?
1. CCN(CC)c1ccc2c(c1)Oc1ccc(N(CC)CC)cc1C21Oc2ccccc2-c2c1c1ccccc1n2CC (stereo not drawn)
2. O=C(Nc1cccc(F)c1)c1cc2ccc(O)cc2o/c1=N\c1cccc(F)c1
3. COc1ccc(/C=C2\CCC(C)(CN(C)C)C2=O)cc1OC (stereo not drawn)

result:
["1.85 µM (inactive)", "5.57 µM (inactive)", "> 100 µM (inactive)"]

These measurements were taken from ChEMBL document CHEMBL1201862.
